The values you see were collected from PubChem BioAssay AID951.

Target: Bcl-2-like protein 10 (Homo sapiens) (UniProt Q9HD36)
Sequence (Q9HD36 whole entry, looked up): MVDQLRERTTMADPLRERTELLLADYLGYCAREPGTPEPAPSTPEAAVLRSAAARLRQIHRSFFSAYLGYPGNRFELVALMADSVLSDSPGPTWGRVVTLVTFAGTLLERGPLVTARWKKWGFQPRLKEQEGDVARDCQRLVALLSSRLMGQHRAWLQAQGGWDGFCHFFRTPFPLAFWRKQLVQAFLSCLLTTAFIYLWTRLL
Assay: inhibitors of Bim-Bcl-B binding, primary screen, biochemical, multiplexed, human Bcl-2 family (AID 951);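 note: 0% = tracer peptide without compound and 100% = reference inhibitor peptide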
Settings: bead-based flow cytometry, Bim peptide-Bcl-B binding; at 10 µM; active compounds read high
About 140 (0.074%) of roughly 190,000 compounds were called active. The sample holds actives, similar compounds and a random draw of the others, so the mix is not that of the screen.
Can you tell me inhibition for the items I'm about to list?
Write down the numeric answer in % and omit the unit.

Query string: Given O=C(O)c1ccc(NS(=O)(=O)c2ccc3c(c2)C(=O)c2cc(S(=O)(=O)Nc4ccc(C(=O)O)cc4)ccc2-3)cc1 , state its recorded inhibition.
Result string: -6

Query string: Now the compound CN1CCN(C(=O)CCc2ncc(C(F)(F)F)cc2Cl)CC1
Result string: -8

Query string: Now the compound CCNC(=O)COC(=O)CCNC(=O)c1cccc(C)c1
Result string: -4

Query string: Now the compound COc1cccc(-c2ccc(C#N)c(SCC(=O)NCCc3ccc(Cl)cc3)n2)c1
Result string: -12

Query string: Now the compound C=CCn1c(SCC(N)=O)nnc1-c1cc2c(s1)CCC(CC)C2 (stereo unspecified)
Result string: -12

Query string: Now the compound Cc1cc(Cl)c(S(=O)(=O)NCCC(=O)O)cc1OCC(N)=O
Result string: -7

Query string: Now the compound O=C(Nn1cnc2ccccc2c1=O)c1ccc([N+](=O)[O-])cc1Cl
Result string: 0

Query string: Now the compound N/C(=N/O)c1cccn1Cc1ccccc1[N+](=O)[O-]
Result string: -4

Query string: Now the compound O=C(NCC1CCCO1)C1CCN(C2CCN(C(=O)C3CCCCC3)CC2)CC1 (stereo unspecified)
Result string: 0

Query string: Now the compound CC(=O)c1ccccc1NC(=O)CC1(CC(=O)O)CCCCC1
Result string: -1

Query string: Now the compound CCCCN1C(=O)c2ccc(C(=O)Nc3ccc(S(=O)(=O)N(C)C)cc3)cc2C1=O
Result string: 0

* * *

Molecular target: Bcl-2-like protein 10 (Homo sapiens)
Assay: inhibitors of Bim-Bcl-B binding, primary screen, biochemical, multiplexed, human Bcl-2 family (AID 951);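 note: 0% = tracer peptide without compound and 100% = reference inhibitor peptide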
Conditions: bead-based flow cytometry, Bim peptide-Bcl-B binding; at 10 µM; active compounds read high
The campaign covered roughly 190,000 compounds. About 140 (0.074%) were called active. Shown is part of a subset that was picked to be rich in actives.
PROPERTY: inhibition (%)
Write down the numeric answer in % and omit the unit.

Query string: Given CCOc1cc(NC(=S)NCCCOC)c(OCC)cc1NC(=O)c1ccco1 , state its recorded inhibition.
Result string: -11

Query string: Now the molecule O=C(NCCCn1ccnc1)C(=O)c1cn(CC(=O)N2CCCCCC2)c2ccccc12
Result string: 0

Query string: Now the molecule OCC1(Cc2ccccc2C(F)(F)F)CCN(Cc2cccc3cnccc23)CC1
Result string: 0

Query string: Now the molecule COC(=O)c1onc(-c2c(OC)cc(OC)cc2OC)c1C(=O)OC
Result string: -1

Query string: Now the molecule CCOC(=O)C1(C)NC(c2ccco2)C2C(=O)N(c3ccccc3)C(=O)C21 (stereo not drawn)
Result string: -1

Query string: Now the molecule CCOc1ccc2nc(NC(=O)c3cc([N+](=O)[O-])ccc3N3CCOCC3)sc2c1
Result string: -3

Query string: Now the molecule CCCCN(CC(=O)NC(C)(C)C)C(=O)C(=O)Nc1ccc2c(c1)OCCO2
Result string: 1

Query string: Now the molecule Cc1nc(CC(=O)NNS(=O)(=O)c2ccc(F)c(Cl)c2)cs1
Result string: 1

Query string: Now the molecule O=C(CSC1CC(=O)N(CCc2ccccc2)C1=O)Nc1ccc(Cl)cc1 (stereo not drawn)
Result string: -5

Query string: Now the molecule Cc1ccccc1NCC(=O)N/N=C\c1ccc([N+](=O)[O-])s1
Result string: -3

Query string: Now the molecule CS(=O)(=O)Nc1cccc(-c2cn3ccccc3n2)c1
Result string: -2

Query string: Now the molecule COc1ccc(-c2nn(-c3ccccc3)cc2/C=C\C(=O)N2CCOCC2)cc1[N+](=O)[O-]
Result string: -1

Query string: Now the molecule O=C(CCc1ccccc1)Nc1ccc(NC(=O)C2CCCCC2)nc1
Result string: 0

Query string: Now the molecule S=c1nc(C23CC4CC(CC(C4)C2)C3)nc2sccn12
Result string: 2

Query string: Now the molecule Cc1ccc(/C=N/NC(=O)CNC(=O)COc2ccccc2)o1
Result string: -7

Query string: Now the molecule CCN(CC)P(=O)(Nc1ccc(SC(F)F)cc1)c1ccc(N(C)C)cc1NC(=O)c1ccco1 (stereo not drawn)
Result string: 1

Query string: Now the molecule Cc1ccc(C)c(NC(=O)CSc2nc3c(oc4ccccc43)c(=O)n2-c2ccccc2)c1
Result string: -6

Query string: Now the molecule COc1ccc(-n2cc(CNC3CCOCC3)c(-c3cccc(F)c3)n2)cc1
Result string: -5

Query string: Now the molecule CN(C)c1ccc(/C=N/N(Cc2ccccc2)c2ccccc2)cc1
Result string: -3

Query string: Now the molecule CCOc1ccccc1/C=N/NC(=O)CNC(=O)COc1ccccc1
Result string: 74

Query string: Now the molecule O=C(CC(NC(=O)c1ccccc1)c1ccccc1)Nc1ccc(F)c(F)c1 (stereo not drawn)
Result string: -6

Query string: Now the molecule CNC(=O)C(=O)N/N=C/c1ccccn1
Result string: 2

Query string: Now the molecule C/C(=N/NC(=O)CSc1ccccn1)c1ccc([N+](=O)[O-])cc1
Result string: -2

Query string: Now the molecule COc1ccc(C2CC(c3ccccc3)=NN2C(=O)COC(=O)COc2ccccc2)cc1 (stereo not drawn)
Result string: -5

Query string: Now the molecule CC(C)C(=O)NCc1cc(-c2ccc(Cl)cc2)no1
Result string: 5

Query string: Now the molecule Cc1c(Br)c([N+](=O)[O-])nn1CC(=O)Nc1sc2c(c1C(=O)OC(C)C)CCC(C)C2 (stereo not drawn)
Result string: 2

Query string: Now the molecule Cc1ccc(C2=NN(C(=O)CSc3nc(N)cc(N)n3)C(c3ccco3)C2)cc1 (stereo not drawn)
Result string: -27

Query string: Now the molecule C/C(=N\NC(=O)c1cccc(N2CCCC2=O)c1)c1ccc(N)cc1
Result string: -7

Query string: Now the molecule CC1CCCC(NC(=O)COC(=O)[C@@H]2CC(O)CN2S(=O)(=O)c2ccc3c(c2)OCCO3)C1C (stereo partly drawn)
Result string: -1

Query string: Now the molecule Cc1ccc(C(C)NC(=O)Cn2nc(C)c([N+](=O)[O-])c2C)cc1 (stereo not drawn)
Result string: -3

Query string: Now the molecule CCCN(CCC)c1c([N+](=O)[O-])c(=O)oc2ccccc12
Result string: 32

Query string: Now the molecule NC(=O)C[n+]1cccc(C(N)=O)c1
Result string: -1

Query string: Now the molecule O=C(O)CC1S/C(=N\N=C/c2ccccc2O)N(c2ccc(O)cc2)C1=O (stereo not drawn)
Result string: -5

Query string: Now the molecule O=C(CCC1CCCN(Cc2ccc(O)c(Cl)c2)C1)NCc1ccccc1F (stereo not drawn)
Result string: -1

Query string: Now the molecule O=C(COC(=O)Cc1ccc(Br)cc1)Nc1c(F)c(F)c(F)c(F)c1F
Result string: -7

Query string: Now the molecule CCC(CC)C(=O)N1CCN(c2cccc(C)c2C)CC1
Result string: 0

Query string: Now the molecule CN(C)c1ccc(C(=S)N2CCN(C(=S)Nc3ccc(Cl)cc3)CC2)cc1
Result string: -6

Query string: Now the molecule Cn1c(SCC(=O)NC2CCCCC2)nnc1-c1ccc(N)cc1
Result string: -4

Query string: Now the molecule O=C(CP(=O)(c1ccccc1)c1ccccc1)N1CCOCC1
Result string: -6

Query string: Now the molecule Cc1ccc2nc(-c3ccncc3)cc(C(=O)Nc3ccc(OC(F)F)cc3)c2c1
Result string: 1

Query string: Now the molecule O=C(Nc1ccc(F)cc1)C1CCN(C(=O)c2ccc([N+](=O)[O-])cc2)CC1
Result string: 6

Query string: Now the molecule O=C(O)/C=C/c1ccc(S(=O)(=O)N2CCCCCC2)cc1
Result string: 0

Query string: Now the molecule OC(COCc1ccco1)CN1CCN(c2ccccc2)CC1 (stereo not drawn)
Result string: -4

* * *

Molecular target: Bcl-2-like protein 10 (Homo sapiens) (UniProt Q9HD36)
Assay: inhibitors of Bim-Bcl-B binding, primary screen, biochemical, multiplexed, human Bcl-2 family (AID 951);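 note: 0% = tracer peptide without compound and 100% = reference inhibitor peptide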
Conditions: bead-based flow cytometry, Bim peptide-Bcl-B binding; at 10 µM; active compounds read high
The whole screen tested about 190,000 compounds, of which about 140 (0.074%) were called active. Shown is part of a subset that was picked to be rich in actives.
PROPERTY: inhibition (%)
Write down the numeric answer in % and omit the unit.

Query string: Given CSCCC(NC(=O)COc1ccccc1)C(=O)Nc1ccc(C)cc1 (configuration not stated) , state its recorded inhibition.
Result string: -6

Query string: Now the compound O=C(CCC(=O)c1cccs1)NC1CCCCCC1
Result string: -1

Query string: Now the compound OCC1(CCOc2ccccc2)CCN(Cc2cn[nH]c2-c2ccccc2)CC1
Result string: -2

Query string: Now the compound CC(C)NC(=O)c1ccc(Cl)cc1Cl
Result string: -2

Query string: Now the compound Cc1nc2ccccc2n1CC(=O)N/N=C/c1cccs1
Result string: -6

Query string: Now the compound O=C(NNC(=S)NCCCN1CCOCC1)c1ccncc1
Result string: -2

Query string: Now the compound Cc1cccc(C(=O)N2CCC(c3nc4ccccc4s3)CC2)c1
Result string: -2

Query string: Now the compound COC(=O)c1sc2[nH]c(=S)n(N)c(=O)c2c1C
Result string: -22

Query string: Now the compound O=C(COc1ccccc1[N+](=O)[O-])NC1CC1
Result string: -4

Query string: Now the compound COc1ccc(N2CCN(C(=O)CNS(=O)(=O)c3ccc(C)c(C)c3)CC2)cc1
Result string: -2

Query string: Now the compound CCOC(=O)C(C)Oc1cccc2c(=O)n(CC(=O)NCCc3ccc(OC)c(OC)c3)ccc12 (configuration not stated)
Result string: -3

Query string: Now the compound Cc1cccc(NC(=S)N(CCN(C)C)C(C)c2ccco2)c1 (configuration not stated)
Result string: 0
